biological target: β-Adrenergic β3 (Homo sapiens, UniProt P13945)
Sequence (P13945 whole entry): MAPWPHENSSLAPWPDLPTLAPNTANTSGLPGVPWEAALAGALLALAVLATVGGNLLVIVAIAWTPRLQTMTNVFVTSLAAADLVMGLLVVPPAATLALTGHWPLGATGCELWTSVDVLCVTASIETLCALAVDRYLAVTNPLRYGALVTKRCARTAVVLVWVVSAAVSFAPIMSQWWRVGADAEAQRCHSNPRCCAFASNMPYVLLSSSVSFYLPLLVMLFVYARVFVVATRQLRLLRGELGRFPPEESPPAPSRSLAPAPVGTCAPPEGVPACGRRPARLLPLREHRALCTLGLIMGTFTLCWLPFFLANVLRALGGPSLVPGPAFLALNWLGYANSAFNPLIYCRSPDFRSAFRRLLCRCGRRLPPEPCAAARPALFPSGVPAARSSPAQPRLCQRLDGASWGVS
pKi: −log10 of the molar value.

[
  {
    "Compound": "CN1CCc2c(c3cccc4c3n2Cc2ccccc2O4)C1 [Compound 13b]",
    "pKi": "< 5.00"
  }
]

---

What follows is a collection of Ki values obtained with Serotonin 5-HT6 (Homo sapiens, UniProt P50406).
Sequence (P50406 whole entry): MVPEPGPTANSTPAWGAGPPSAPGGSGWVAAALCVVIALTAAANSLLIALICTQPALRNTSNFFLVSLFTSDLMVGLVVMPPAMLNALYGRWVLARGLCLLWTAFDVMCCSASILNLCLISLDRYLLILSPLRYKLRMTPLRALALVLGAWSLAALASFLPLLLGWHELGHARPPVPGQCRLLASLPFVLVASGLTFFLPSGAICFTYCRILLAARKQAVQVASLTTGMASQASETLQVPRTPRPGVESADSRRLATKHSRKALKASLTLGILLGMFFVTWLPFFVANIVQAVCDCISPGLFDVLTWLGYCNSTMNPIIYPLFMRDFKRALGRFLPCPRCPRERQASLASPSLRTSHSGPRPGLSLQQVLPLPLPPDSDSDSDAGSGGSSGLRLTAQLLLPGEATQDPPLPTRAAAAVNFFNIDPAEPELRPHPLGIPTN

[
  {
    "Molecule": "CN1CCc2c(c3cccc4c3n2-c2ccccc2CC4)C1 [Compound 6a, reference compound]",
    "Subject Of Test": "Serotonin 5-HT6 (Homo sapiens, UniProt P50406)",
    "Ki": "155 nM"
  },
  {
    "Molecule": "CN1CCc2c(c3cccc4c3n2Cc2ccccc2C4)C1 [Compound 13a]",
    "Subject Of Test": "Serotonin 5-HT6 (Homo sapiens, UniProt P50406)",
    "Ki": "273 nM"
  },
  {
    "Molecule": "CN1CCc2c(c3cccc4c3n2Cc2ccccc2O4)C1 [Compound 13b]",
    "Subject Of Test": "Serotonin 5-HT6 (Homo sapiens, UniProt P50406)",
    "Ki": "189 nM"
  }
]

Each recorded value in this set is attributed to patent US9598414B2.
